Reference source for all entries: patent US20210196796A1

# targetOrSystem: T1, orthogonal hCD122 receptor (hoRb), hCD122 with H133D and Y134F (human, UniProt P14784 27-550)
# T1 sequence: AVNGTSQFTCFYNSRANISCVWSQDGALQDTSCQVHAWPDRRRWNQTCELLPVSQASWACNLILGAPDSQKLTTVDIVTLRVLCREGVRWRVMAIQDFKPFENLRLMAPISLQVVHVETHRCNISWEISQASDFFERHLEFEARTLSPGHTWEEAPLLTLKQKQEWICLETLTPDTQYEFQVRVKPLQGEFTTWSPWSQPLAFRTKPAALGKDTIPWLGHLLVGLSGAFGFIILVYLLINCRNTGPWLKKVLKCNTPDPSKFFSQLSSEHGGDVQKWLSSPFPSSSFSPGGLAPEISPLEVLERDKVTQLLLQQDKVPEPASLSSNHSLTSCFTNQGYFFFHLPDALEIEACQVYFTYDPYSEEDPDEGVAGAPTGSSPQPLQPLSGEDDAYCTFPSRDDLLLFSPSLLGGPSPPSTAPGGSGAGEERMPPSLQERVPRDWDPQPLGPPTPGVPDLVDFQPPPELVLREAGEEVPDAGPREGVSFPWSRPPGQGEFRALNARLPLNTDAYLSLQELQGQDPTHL
# test: cell-based or functional assay
Listing of entries alongside the reported 3F8 Ortho Proliferation Signal 1:2.
Report the figure in cts/min without appending any unit label.

See these solved cases before continuing.
N88Q, SQVLKA (ligand) APTSSSTKKTQLQLSQLLVLLKAILNGINNYKNPKLTRMLTFKFYMPKKATELKHLQCLEEELKPLEEVLNLAQSKNFHLRPRDLISQINVIVLELKGSETTFMCEYADETATIVEFLNRWITFCQSIISTLT | 644
Q13W SQVLKA (ligand) APTSSSTKKTQLWLSQLLVLLKAILNGINNYKNPKLTRMLTFKFYMPKKATELKHLQCLEEELKPLEEVLNLAQSKNFHLRPRDLISNINVIVLELKGSETTFMCEYADETATIVEFLNRWITFCQSIISTLT | 27000
ΔT7, SQVLKA (ligand) APTSSSKKTQLQLSQLLVLLKAILNGINNYKNPKLTRMLTFKFYMPKKATELKHLQCLEEELKPLEEVLNLAQSKNFHLRPRDLISNINVIVLELKGSETTFMCEYADETATIVEFLNRWITFCQSIISTLT | 40800
Q126S, SQVLKA (ligand) APTSSSTKKTQLQLSQLLVLLKAILNGINNYKNPKLTRMLTFKFYMPKKATELKHLQCLEEELKPLEEVLNLAQSKNFHLRPRDLISNINVIVLELKGSETTFMCEYADETATIVEFLNRWITFCSSIISTLT | 9540
L18K, SQVLKA (ligand) APTSSSTKKTQLQLSQLKVLLKAILNGINNYKNPKLTRMLTFKFYMPKKATELKHLQCLEEELKPLEEVLNLAQSKNFHLRPRDLISNINVIVLELKGSETTFMCEYADETATIVEFLNRWITFCQSIISTLT | 45400
L18I, SQVLKA (ligand) APTSSSTKKTQLQLSQLIVLLKAILNGINNYKNPKLTRMLTFKFYMPKKATELKHLQCLEEELKPLEEVLNLAQSKNFHLRPRDLISNINVIVLELKGSETTFMCEYADETATIVEFLNRWITFCQSIISTLT | 36900
L80F, SQVLKA (ligand) APTSSSTKKTQLQLSQLLVLLKAILNGINNYKNPKLTRMLTFKFYMPKKATELKHLQCLEEELKPLEEVLNLAQSKNFHFRPRDLISNINVIVLELKGSETTFMCEYADETATIVEFLNRWITFCQSIISTLT | 37200
M104A, SQVLKA (ligand) APTSSSTKKTQLQLSQLLVLLKAILNGINNYKNPKLTRMLTFKFYMPKKATELKHLQCLEEELKPLEEVLNLAQSKNFHLRPRDLISNINVIVLELKGSETTFACEYADETATIVEFLNRWITFCQSIISTLT | 29300

Identify measured 3F8 Ortho Proliferation Signal 1:2 associated with G27S, SQVLKA (ligand) APTSSSTKKTQLQLSQLLVLLKAILNSINNYKNPKLTRMLTFKFYMPKKATELKHLQCLEEELKPLEEVLNLAQSKNFHLRPRDLISNINVIVLELKGSETTFMCEYADETATIVEFLNRWITFCQSIISTLT
40200
